# Condition context: in acetonitrile, 313.15 K
Experimental endpoint: solubility (mole fraction)
Just the number, please, no unit after it.

Reported solubility (mole fraction) ( O=[N+]([O-])c1cn[nH]c1 ) = 0.0906

###

# Condition context: in n-propanol, 288.15 K
Experimental endpoint: solubility (mole fraction)
Just the number, please, no unit after it.

Reported solubility (mole fraction) ( O=[N+]([O-])c1cn[nH]c1 ) = 0.0872

###

# Condition context: in n-pentanol, 303.15 K
Experimental endpoint: solubility (mole fraction)
Just the number, please, no unit after it.

Reported solubility (mole fraction) ( O=[N+]([O-])c1cn[nH]c1 ) = 0.112

###

# Condition context: in ethyl acetate, 288.15 K
Experimental endpoint: solubility (mole fraction)
Just the number, please, no unit after it.

Reported solubility (mole fraction) ( O=[N+]([O-])c1cn[nH]c1 ) = 0.00483

###

# Condition context: in acetone, 303.15 K
Experimental endpoint: solubility (mole fraction)

Reported solubility (mole fraction) ( O=[N+]([O-])c1cn[nH]c1 ) = 0.045

###

# Condition context: in acetonitrile, 308.15 K
Experimental endpoint: solubility (mole fraction)
Just the number, please, no unit after it.

Reported solubility (mole fraction) ( O=[N+]([O-])c1cn[nH]c1 ) = 0.0776

###

# Condition context: in n-butanol, 318.15 K
Experimental endpoint: solubility (mole fraction)

Reported solubility (mole fraction) ( O=[N+]([O-])c1cn[nH]c1 ) = 0.199

###

# Condition context: in ethyl acetate, 318.15 K
Experimental endpoint: solubility (mole fraction)
Just the number, please, no unit after it.

Reported solubility (mole fraction) ( O=[N+]([O-])c1cn[nH]c1 ) = 0.0176

###

# Condition context: in acetonitrile, 303.15 K
Experimental endpoint: solubility (mole fraction)

Reported solubility (mole fraction) ( O=[N+]([O-])c1cn[nH]c1 ) = 0.0647

###

# Condition context: in methanol, 288.15 K
Experimental endpoint: solubility (mole fraction)
Just the number, please, no unit after it.

Reported solubility (mole fraction) ( O=[N+]([O-])c1cn[nH]c1 ) = 0.109

###

# Condition context: in acetone, 308.15 K
Experimental endpoint: solubility (mole fraction)

Reported solubility (mole fraction) ( O=[N+]([O-])c1cn[nH]c1 ) = 0.047

###

# Condition context: in THF, 303.15 K
Experimental endpoint: solubility (mole fraction)
Just the number, please, no unit after it.

Reported solubility (mole fraction) ( O=[N+]([O-])c1cn[nH]c1 ) = 0.00722

###

# Condition context: in n-butanol, 313.15 K
Experimental endpoint: solubility (mole fraction)
Just the number, please, no unit after it.

Reported solubility (mole fraction) ( O=[N+]([O-])c1cn[nH]c1 ) = 0.166

###

# Condition context: in ethanol, 288.15 K
Experimental endpoint: solubility (mole fraction)
Just the number, please, no unit after it.

Reported solubility (mole fraction) ( O=[N+]([O-])c1cn[nH]c1 ) = 0.101

###

# Condition context: in isobutanol, 328.15 K
Experimental endpoint: solubility (mole fraction)
Just the number, please, no unit after it.

Reported solubility (mole fraction) ( O=[N+]([O-])c1cn[nH]c1 ) = 0.247

###

# Condition context: in ethyl acetate, 308.15 K
Experimental endpoint: solubility (mole fraction)

Reported solubility (mole fraction) ( O=[N+]([O-])c1cn[nH]c1 ) = 0.0118

Where these numbers come from: BigSolDB 2.1
